Biological target: T1, purified recombinant RSV-Ga protein (Sino Biologics) (Respiratory Syncytial Virus subtype A, …, UniProt P03423 64-298)
T1 sequence: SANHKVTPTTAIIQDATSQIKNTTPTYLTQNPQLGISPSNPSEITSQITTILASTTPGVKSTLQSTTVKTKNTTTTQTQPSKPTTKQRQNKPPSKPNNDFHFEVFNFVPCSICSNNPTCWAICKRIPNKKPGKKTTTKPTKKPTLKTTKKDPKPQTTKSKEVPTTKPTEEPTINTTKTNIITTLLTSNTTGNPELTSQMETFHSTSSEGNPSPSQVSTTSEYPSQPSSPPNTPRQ
Assay: SPR (IBIS MX96), IgG captured on anti-human IgG, RSV Ga injected

{"Binder": "AT32 (antibody, V domains shown) VH: QVQLVQSGAEMKKPGASVKVSCQVAGYTLTELSIHWVRQTPGNGLEWMGGFEPEDGEYIYPQKSQGRVTMTEDTSTGTAYMELRSLRSDDTAVYYCAAEARYCDNSRCSPNFDHWGQGTLVAVSS VL: DIVMTQSPDSLAVSLGERATFSCKSSQSVLYDSNNKNYLAWYQQRPGQPPKLLIYWASTRESGVPDRFSGSGSGTDFTLTISSLQPEDVAVYYCQQYYDPLITFGQGTRLEIKR", "Output Unit": "s⁻¹", "koff": 0.00043}
{"Binder": "AT49 (antibody, V domains shown) VH: QVLLVQSGAEIKKPGSSVKISCKASGGTFSSLALNWVRQAPGQGLQWMGGIIPLFGTQNYAQKFQGRVTITADESTSTAYMELSGLRPEDTAVYYCALFLWFGDQTSDDGFDVWGQGTVVTVSS VL: DIVMTQSPLSLTVTPGEPASISCRSSQSLLHGNGYKYLHWYLQKPGQSPQLLIYLGSNRASGVPARFSGSGSDTDFTLKISTVETEDVGVYYCMQALQSPTFGQGTKVEIKR", "Output Unit": "s⁻¹", "koff": "3e-05"}
{"Binder": "AT44 (antibody, V domains shown) VH: QVQLQASGPGLVKPSETLSLTCNVSGYSVSSGHYWAWVRQSPGKGLEWIGGIHHSGSTYTNPPLKSRVSISIDTSKNQFSLRLTSVTAADTAVYFCARDLYDLSTGPFWFDPWGQGTLVTVSS VL: EIVMTQSPATLSVSPGERVTLSCRASQSVSTKVVWYQQKFGQAPRLLIYGASTRATGIPVRFSGSGSGTEFTLTISSLQSEDLAVYFCQQYNKWPMYTFGQGTKLEIKR", "Output Unit": "s⁻¹", "koff": "3e-05"}
{"Binder": "AT40 (antibody, V domains shown) VH: QVQLVESGGGVVQPGMSHRLSCAASTLIFDRHALHWVRQAPGAGLEWVAILSYDGTTDYYADSVKGRFTVSRDTSKNTVFLQMNGLRPQDTAVYYCARGRALDDFADYGGYYFDYWGQGILVTVSS VL: DIQMTQSPSSVSASVGDKVTITCRASQGISTWLAWYQQKPGKAPALLIYSASRLQSGVPSRFSGSGSGTDFTLTISSLQPEDYATYYCQQANTFPFTFGPGTKVDIKR", "Output Unit": "s⁻¹", "koff": "6e-05"}
